# ASSAYED TARGET: acetylcholine receptor
# ASSAY INFO: SPR, peptide at 10 uM
MEASURED PARAMETER: Binding affinity (RU)

Example binders with recorded Binding affinity:
- BINDER: "RAPARR [6mer-2-1188]"
  UNIT DESCRIPTOR: "RU"
  Binding affinity: 22
- BINDER: "KIDFRR [6mer-2-1149]"
  UNIT DESCRIPTOR: "RU"
  Binding affinity: 21
- BINDER: "KHKNKR [6mer-2-1192]"
  UNIT DESCRIPTOR: "RU"
  Binding affinity: 40
- BINDER: "RNWAKK [6mer-2-1152]"
  UNIT DESCRIPTOR: "RU"
  Binding affinity: 37
- BINDER: "KHKGKR [6mer-2-1102]"
  UNIT DESCRIPTOR: "RU"
  Binding affinity: 32

P. KMEVKK [6mer-2-1116]
Q. RMHVKR [6mer-2-1117]
// query Parameter check: reported Binding affinity is higher for which label, P or Q ? Lab log: write the label of the selected item as the result.
// result P

These measurements were taken from patent US20250011363A1.
